Tested on: B-16 melanoma
protocol_notes: Anti-tumor action to B-16 melanoma
Assay type: in vivo, BDF1 female mice
conditions_used: Mus musculus, B16, 504 h; oral, 250 mg/kg/day × 3; tumor weight at 21st day; read-out: B-16 melanoma Inhibition ratio
value_kind: inhibition in vivo at 250 mg/kg/day (%)

molecule	target_desc	value_kind	data_value
C[Si](C)(C)CCSCCCNC(=O)n1cc(F)c(=O)[nH]c1=O [Example 8]	B-16 melanoma	inhibition in vivo at 250 mg/kg/day	4.3
C[Si](C)(C)CCCSCCNC(=O)n1cc(F)c(=O)[nH]c1=O [Example 1]	B-16 melanoma	inhibition in vivo at 250 mg/kg/day	73.8
C[Si](C)(C)CCCSCCCNC(=O)n1cc(F)c(=O)[nH]c1=O [Example 10]	B-16 melanoma	inhibition in vivo at 250 mg/kg/day	15.2
CC(C)[Si](C)(C)CCCSCCNC(=O)n1cc(F)c(=O)[nH]c1=O [Example 12]	B-16 melanoma	inhibition in vivo at 250 mg/kg/day	37.9

###

Test system: KB cells
protocol_notes: Suppression of KB cell proliferation in vitro
Format: cell-based
conditions_used: Homo sapiens, 72 h, 3 days exposure, Trypan Blue dye-exclusion, read-out: KB IC50 (50% inhibition density to tumor cell proliferation)
value_kind: IC50

test_smiles	value_kind	data_value
C[Si](C)(C)CCCSCCNC(=O)n1cc(F)c(=O)[nH]c1=O	IC50	20 µg/mL
CCCCCCCC[Si](C)(C)CCSCCNC(=O)n1cc(F)c(=O)[nH]c1=O	IC50	20 µg/mL
CC(C)[Si](C)(C)CCSCCCNC(=O)n1cc(F)c(=O)[nH]c1=O	IC50	15 µg/mL
C[Si](C)(C)CCCSCCCNC(=O)n1cc(F)c(=O)[nH]c1=O	IC50	10 µg/mL
C[Si](C)(C)CCSCCCNC(=O)n1cc(F)c(=O)[nH]c1=O	IC50	7 µg/mL

###

Below, each entry is listed alongside its reported ILS at 500 mg/kg/day.
System: L-1210 leukemia
protocol_notes: Anti-tumor action to L-1210 leukemia
Assay type: in vivo, BDF1 female mice
conditions_used: Mus musculus, L1210; oral, 500 mg/kg/day × 3 (1st, 5th, 9th day); read-out: L-1210 Judgement

test_smiles	ILS at 500 mg/kg/day
C[Si](C)(CCCSCCCNC(=O)n1cc(F)c(=O)[nH]c1=O)c1ccccc1	50 to 100%
CC[Si](CC)(CC)CCSCCNC(=O)n1cc(F)c(=O)[nH]c1=O	50 to 100%
CCCC[Si](C)(C)CCSCCNC(=O)n1cc(F)c(=O)[nH]c1=O	50 to 100%
C[Si](C)(C)CCCSCCNC(=O)n1cc(F)c(=O)[nH]c1=O	50 to 100%
CC(C)(C)[Si](C)(C)CCCSCCCNC(=O)n1cc(F)c(=O)[nH]c1=O	50 to 100%
CC(C)[Si](C)(C)CCCSCCCNC(=O)n1cc(F)c(=O)[nH]c1=O	50 to 100%
CC(C)[Si](C)(C)CCSCCNC(=O)n1cc(F)c(=O)[nH]c1=O	≥ 100%
CC(C)[Si](C)(C)CCCSCCNC(=O)n1cc(F)c(=O)[nH]c1=O	50 to 100%
CC(C)[Si](C)(C)CCSCCCNC(=O)n1cc(F)c(=O)[nH]c1=O	50 to 100%
CCCCCCCC[Si](C)(C)CCSCCNC(=O)n1cc(F)c(=O)[nH]c1=O	25 to 50%
CC(C)(C)[Si](C)(C)CCCSCCNC(=O)n1cc(F)c(=O)[nH]c1=O	50 to 100%
CCCC[Si](C)(C)CCCSCCCNC(=O)n1cc(F)c(=O)[nH]c1=O	50 to 100%
C[Si](C)(C)CCCSCCCNC(=O)n1cc(F)c(=O)[nH]c1=O	≥ 100%
C[Si](CCSCCNC(=O)n1cc(F)c(=O)[nH]c1=O)(c1ccccc1)c1ccccc1	< 25%
C[Si](C)(C)CCSCCCNC(=O)n1cc(F)c(=O)[nH]c1=O	50 to 100%
C[Si](C)(CCSCCNC(=O)n1cc(F)c(=O)[nH]c1=O)c1ccccc1	50 to 100%
